Data provenance: paper PMC9170038

molecular target: MS2 coat protein, dlFG mutant (Escherichia phage MS2, UniProt P03612, del68-81insG); experiment: 4 mM Mg2+; FMN 200 uM; RNA-MaP array; 100 mM Tris-HCl pH 7.5, 80 mM KCl, 4 mM MgCl2, 0.1 mg/mL BSA, 1 mM DTT, 0.01 mg/mL yeast tRNA, 0.01% Tween-20; protein 1.5 nM to 3 uM; 37 C (Table S3); settings: chain copies: 2; label: tethered by stalled RNA polymerase
measurementName: Kd (nM)
// return numeric value only (unit: nM, not printed)

Reported Kd of Eterna 5997882 (Exclusion 5) (ssRNA) RNA: CAGCCCUGAGGAUAUCCCUACUUGUACAUGAGGAUCACCCAUGUCCUCCUCCGGGCUUCGGGAGAAGGCAGGUCUC : 18.5
